- targetOrTestSystem: UniProt P35368
- assayInfo: Displacement of [125I]BE-2254 from human adrenergic Alpha-1B receptor expressed in HEK293 cells
- Type: cell-based
valueKind: Ki (nM)

Some entries whose results are on file:
> print(dat)
                                 testsmiles  valuekind  numericvalue
1  COc1ccc(Cl)cc1N1CCN(CCCCN2C(=O)CC(C)(c3ccccc3)CC2=O)CC1         Ki           151
2  COc1ccccc1N1CCN(CCN2C(=O)CC3(CCc4ccccc43)CC2=O)CC1         Ki          5010
3  COc1ccccc1N1CCN(CCCCN2C(=O)CC(c3ccc([N+](=O)[O-])cc3)CC2=O)CC1         Ki           209
4  O=C1CC(c2ccc(Cl)cc2)CC(=O)N1CCCN1CCN(c2ccccc2Cl)CC1         Ki           135
5  O=C1CC(c2ccccc2)CC(=O)N1CCCCN1CCN(c2ccccc2Cl)CC1         Ki          30.2

(a) COc1ccccc1N1CCN(CCN2C(=O)CC(c3ccccc3)CC2=O)CC1
(b) COc1ccccc1N1CCN(CCCCN2C(=O)CC(c3ccc(Cl)cc3)CC2=O)CC1
(c) COc1ccccc1N1CCN(CCN2C(=O)CC(c3ccc(Cl)cc3)CC2=O)CC1
# input Arrange these 3 compounds in increasing order of Ki. Please express your ranking as an ordered list of the labels.
# output c, b, a

(A) COc1ccc(Cl)cc1N1CCN(CCCCN2C(=O)CC(c3ccccc3)CC2=O)CC1
(B) COc1ccc(Cl)cc1N1CCN(CCCN2C(=O)CC(C)(c3ccccc3)CC2=O)CC1
(C) COc1ccccc1N1CCN(CCCCN2C(=O)CC(c3ccccc3)CC2=O)CC1
(D) O=C1CC(c2ccccc2)CC(=O)N1CCN1CCN(c2ccccc2Cl)CC1
# input In this exercise, place the 4 compounds in ascending sequence of their recorded Ki. Write the labels out in the order the request specifies.
# output C, A, B, D
(C: 24 nM, A: 107 nM, B: 195 nM, D: 2240 nM)

(I) COc1ccccc1N1CCN(CCCN2C(=O)CC(C)(c3ccccc3)CC2=O)CC1
(II) COc1ccccc1N1CCN(CCCN2C(=O)CC3(CCc4ccccc43)CC2=O)CC1
(III) COc1ccccc1N1CCN(CCCCN2C(=O)CC(C)(c3ccccc3)CC2=O)CC1
# input Arrange these 3 compounds in increasing order of Ki. Your reply should list the labels following the order given in the request.
# output III, I, II
(III: 56.2 nM, I: 129 nM, II: 234 nM)

(1) COc1ccccc1N1CCN(CCCN2C(=O)CC(c3ccccc3)CC2=O)CC1
(2) COc1ccc(Cl)cc1N1CCN(CCCN2C(=O)CC(c3ccccc3)CC2=O)CC1
# input // select label with min value of measured Ki from [ 1 , 2 ] Please respond with the label that marks your chosen entry.
# output 1
(1: 112 nM, 2: 331 nM)

###

- targetOrTestSystem: Alpha-1B adrenergic receptor (Homo sapiens, UniProt P35368)
- Sequence (P35368 whole entry): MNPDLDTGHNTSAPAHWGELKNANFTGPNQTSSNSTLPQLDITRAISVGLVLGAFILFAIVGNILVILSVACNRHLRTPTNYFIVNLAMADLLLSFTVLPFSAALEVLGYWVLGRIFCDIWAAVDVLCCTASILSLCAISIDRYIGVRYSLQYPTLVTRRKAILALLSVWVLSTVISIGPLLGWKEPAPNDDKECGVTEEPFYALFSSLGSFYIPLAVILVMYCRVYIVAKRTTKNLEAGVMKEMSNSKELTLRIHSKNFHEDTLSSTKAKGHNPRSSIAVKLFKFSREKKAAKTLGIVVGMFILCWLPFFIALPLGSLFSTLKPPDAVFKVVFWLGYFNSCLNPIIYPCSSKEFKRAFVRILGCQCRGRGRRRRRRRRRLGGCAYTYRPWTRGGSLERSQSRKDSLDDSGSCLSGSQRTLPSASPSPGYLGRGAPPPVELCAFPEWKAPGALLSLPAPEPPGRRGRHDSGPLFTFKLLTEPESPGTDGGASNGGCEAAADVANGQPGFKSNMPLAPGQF
- assayInfo: Displacement of [125I]BE-2254 from human adrenergic Alpha-1B receptor expressed in HEK293 cells
- Assay type: cell-based
valueKind: Ki (nM)

> print(dat)
                                 testsmiles  valuekind  numericvalue
1  COc1ccccc1N1CCN(CCCN2C(=O)CC(c3ccc(Cl)cc3)CC2=O)CC1         Ki           126

(I) COc1ccccc1N1CCN(CCCN2C(=O)CC(c3ccc([N+](=O)[O-])cc3)CC2=O)CC1
(II) O=C1CC(c2ccc(Cl)cc2)CC(=O)N1CCN1CCN(c2ccccc2Cl)CC1
# input Endpoint returns whichever of I and II has the numerically higher Ki. Lab note: record the label of whichever item you select.
# output II
